METHOD NOTES: self-splicing fitness, log relative to wild type (ln ratio); higher = more splicing; Tetrahymena group I intron in knt gene, E. coli kanamycin selection, DiMSum; sequences stand for … in CUCUCU…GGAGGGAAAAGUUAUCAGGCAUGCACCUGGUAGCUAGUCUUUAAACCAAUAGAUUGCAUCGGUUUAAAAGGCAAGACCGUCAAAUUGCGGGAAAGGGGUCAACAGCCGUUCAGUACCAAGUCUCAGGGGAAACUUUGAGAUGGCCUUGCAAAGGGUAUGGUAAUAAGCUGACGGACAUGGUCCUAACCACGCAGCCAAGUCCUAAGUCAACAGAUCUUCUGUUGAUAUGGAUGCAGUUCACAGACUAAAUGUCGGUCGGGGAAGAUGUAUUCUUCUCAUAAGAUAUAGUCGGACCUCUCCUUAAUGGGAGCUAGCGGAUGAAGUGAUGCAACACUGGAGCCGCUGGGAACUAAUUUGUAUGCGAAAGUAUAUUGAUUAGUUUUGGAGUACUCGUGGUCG;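 note: selection with 25 µg/mL kanamycin versus none on LB agar overnight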
DETAILS: 30 °C
READOUT LABEL: self-splicing fitness (ln)
Give the figure by itself; no unit, no explanation.

SEQUENCE DATA: GCUAAGCAAUAUUACGGUUA
self-splicing fitness (ln): -1.33
--
SEQUENCE DATA: AUAUAGCAAUAUUACGUGCC
self-splicing fitness (ln): -1.82
--
SEQUENCE DATA: GUGAAGCAAUAUUACGAACU
self-splicing fitness (ln): -2.15

Request: Dear colleague, I am looking for the recorded self-splicing fitness (ln) of the following sequence: `CAUUAGCAAUAUUACGAAGA`
Response: -3.8

Request: Also need `AUUGAGCAAUAUUACGCCCU` , thanks.
Response: -2.51

Request: Also need `UUCAAGCAAUAUUACGAUAC` , thanks.
Response: -2.1

Request: Also need `AGCGAGCAAUAUUACGUAAU` , thanks.
Response: -3.21

Request: Also need `GGCUAGCAAUAUUACGCGUC` , thanks.
Response: -2.06

Request: Also need `CAGAAGCAAUAUUACGGGGU` , thanks.
Response: -2.98

====

METHOD NOTES: self-splicing fitness, log relative to wild type (ln ratio); higher = more splicing; Tetrahymena group I intron in knt gene, E. coli kanamycin selection, DiMSum; sequences stand for … in CUCUCU…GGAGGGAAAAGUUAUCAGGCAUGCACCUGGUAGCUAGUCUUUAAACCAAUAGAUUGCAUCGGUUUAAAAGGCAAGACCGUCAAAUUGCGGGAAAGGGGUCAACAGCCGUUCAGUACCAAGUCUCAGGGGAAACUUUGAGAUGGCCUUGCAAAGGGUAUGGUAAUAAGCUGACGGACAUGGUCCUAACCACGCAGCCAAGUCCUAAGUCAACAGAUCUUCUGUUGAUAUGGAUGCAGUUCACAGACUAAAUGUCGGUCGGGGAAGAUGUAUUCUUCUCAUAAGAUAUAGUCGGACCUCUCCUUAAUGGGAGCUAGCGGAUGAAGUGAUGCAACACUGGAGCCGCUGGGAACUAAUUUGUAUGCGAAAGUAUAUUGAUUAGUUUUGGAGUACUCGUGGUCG
DETAILS: 30 °C
Entries annotated with measured self-splicing fitness (ln)
Give the figure by itself; no unit, no explanation.

The following sequences have reported results that may help.
SEQUENCE DATA: UCACAGCAAUAUUACGUCUU
self-splicing fitness (ln): -1.68
--
SEQUENCE DATA: GGGCAGCAAUAUUACGCAUG
self-splicing fitness (ln): -1.36
--
SEQUENCE DATA: AGUUAGCAAUAUUACGUCGA
self-splicing fitness (ln): -1.37
--
SEQUENCE DATA: GUAAAGCAAUAUUACGCCAG
self-splicing fitness (ln): -1.89
--
SEQUENCE DATA: CAUAAGCAAUAUUACGAUCU
self-splicing fitness (ln): -2.67
--
SEQUENCE DATA: AAUCAGCAAUAUUACGCAGG
self-splicing fitness (ln): -1.51
--
SEQUENCE DATA: UAGUAGCAAUAUUACGGUAG
self-splicing fitness (ln): -2.56
--
SEQUENCE DATA: AAUGAGCAAUAUUACGCAGA
self-splicing fitness (ln): -2.8

Now consider the entry below.
Request: Dear colleague, I am looking for the recorded self-splicing fitness (ln) of the following sequence: `GUAUAGCAAUAUUACGGGCG`
Response: -2.27

====

METHOD NOTES: self-splicing fitness, log relative to wild type (ln ratio); higher = more splicing; Tetrahymena group I intron in knt gene, E. coli kanamycin selection, DiMSum; sequences stand for … in CUCUCU…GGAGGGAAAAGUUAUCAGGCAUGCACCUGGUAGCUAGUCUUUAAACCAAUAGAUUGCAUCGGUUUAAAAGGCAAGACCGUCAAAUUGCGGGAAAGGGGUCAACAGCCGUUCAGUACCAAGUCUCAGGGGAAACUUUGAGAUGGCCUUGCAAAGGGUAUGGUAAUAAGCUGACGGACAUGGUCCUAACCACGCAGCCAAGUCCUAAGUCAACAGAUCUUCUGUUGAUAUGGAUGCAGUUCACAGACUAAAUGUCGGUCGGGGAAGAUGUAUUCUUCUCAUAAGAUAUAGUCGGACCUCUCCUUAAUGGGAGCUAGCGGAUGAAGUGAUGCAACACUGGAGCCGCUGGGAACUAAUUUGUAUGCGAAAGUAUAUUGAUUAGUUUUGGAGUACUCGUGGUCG
DETAILS: 37 °C
READOUT LABEL: self-splicing fitness (ln)
Give the figure by itself; no unit, no explanation.

The following sequences have reported results that may help.
SEQUENCE DATA: GAUGAGCAAUAUUACGCAUC
READOUT LABEL: self-splicing fitness (ln)
MEASURED VALUE: -2.32
//
SEQUENCE DATA: GCUGAGCAAUAUUACGCUAU
READOUT LABEL: self-splicing fitness (ln)
MEASURED VALUE: -3.59
//
SEQUENCE DATA: GAAGAGCAAUAUUACGAUGA
READOUT LABEL: self-splicing fitness (ln)
MEASURED VALUE: -1.57
//
SEQUENCE DATA: CCAUAGCAAUAUUACGCAGU
READOUT LABEL: self-splicing fitness (ln)
MEASURED VALUE: -3.37
//
SEQUENCE DATA: CGAAAGCAAUAUUACGUAUC
READOUT LABEL: self-splicing fitness (ln)
MEASURED VALUE: -3.21
//
SEQUENCE DATA: UGGCAGCAAUAUUACGGUUG
READOUT LABEL: self-splicing fitness (ln)
MEASURED VALUE: -1.04

Now consider the entry below.
Request: Dear colleague, I am looking for the recorded self-splicing fitness (ln) of the following sequence: `GUCUAGCAAUAUUACGAGCG`
Response: -0.599

====

METHOD NOTES: self-splicing fitness, log relative to wild type (ln ratio); higher = more splicing; Tetrahymena group I intron in knt gene, E. coli kanamycin selection, DiMSum; sequences stand for … in CUCUCU…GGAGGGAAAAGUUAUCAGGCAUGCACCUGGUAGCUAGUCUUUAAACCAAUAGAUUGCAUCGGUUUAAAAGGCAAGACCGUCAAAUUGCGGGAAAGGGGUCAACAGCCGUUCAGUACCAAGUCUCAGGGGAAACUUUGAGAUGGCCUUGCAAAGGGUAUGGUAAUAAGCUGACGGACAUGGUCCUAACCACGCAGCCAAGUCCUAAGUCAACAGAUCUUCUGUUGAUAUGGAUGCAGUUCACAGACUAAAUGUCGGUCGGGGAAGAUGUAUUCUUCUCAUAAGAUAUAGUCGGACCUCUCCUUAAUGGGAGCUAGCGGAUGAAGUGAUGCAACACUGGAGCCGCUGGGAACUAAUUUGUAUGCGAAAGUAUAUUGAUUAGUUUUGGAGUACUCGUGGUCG
DETAILS: 30 °C
Assign TRUE to entries whose self-splicing fitness (ln) meets or exceeds -2; assign FALSE to the rest.

Use the examples below as a reference point.
SEQUENCE DATA: CAUGAGCAAUAUUACGUUGC
CAT: FALSE
//
SEQUENCE DATA: UGGAAGCAAUAUUACGCAUG
CAT: TRUE
//
SEQUENCE DATA: AGUUAGCAAUAUUACGUCGC
CAT: FALSE
//
SEQUENCE DATA: CAGAAGCAAUAUUACGUGGA
CAT: FALSE
//
SEQUENCE DATA: AUGGAGCAAUAUUACGGCCC
CAT: TRUE

Request: Reported self-splicing fitness (ln) at or above -2? `UAUCAGCAAUAUUACGAGGA`
Response: TRUE

Request: Also need `GUAUAGCAAUAUUACGGUGA` , thanks.
Response: FALSE

Request: Also need `UACGAGCAAUAUUACGAGUA` , thanks.
Response: FALSE

Request: Also need `AUUUAGCAAUAUUACGUAUA` , thanks.
Response: FALSE

Request: Also need `CACUAGCAAUAUUACGGGAC` , thanks.
Response: FALSE

Request: Also need `AUUGAGCAAUAUUACGGAGU` , thanks.
Response: FALSE

Request: Also need `ACCCAGCAAUAUUACGUCAA` , thanks.
Response: TRUE

Request: Also need `AUGAAGCAAUAUUACGUGCA` , thanks.
Response: TRUE

Request: Also need `GAUUAGCAAUAUUACGCGGU` , thanks.
Response: FALSE
